# CC50 values compiled below
- Test system: DU-145
- assay_explanation: Cytotoxicity against human DU145 cells after 48 hrs by SRB assay
- Format: functional, cell-based
- study_conditions: Homo sapiens, DU-145, 48 h; read-out: LC50 (the source's name)
// units = nM; emit number, no label

Below are worked cases with known answers.
smiles_structure: C/C=C1\NC(=O)[C@H](Cc2ccccc2)NC(=O)[C@@H](CCC2CCCCC2)NC(=O)[C@@H](CCC2CCCCC2)NC(=O)[C@H](NC(=O)[C@@H](CCC2CCCCC2)NC(=O)[C@H](CCCN)NC(=O)[C@H]2CCCN2C(=O)[C@H](NC(=O)[C@@H](NC(=O)[C@@H](NC(=O)[C@H](NC(=O)CCCC(C)C)C(C)C)[C@@H](C)O)C(C)C)C(C)C)[C@H](C)OC(=O)[C@H](C(C)C)NC1=O
CC50, nM: 104
//
smiles_structure: C/C=C1\NC(=O)[C@H](Cc2ccccc2)NC(=O)[C@@H](C(C)C)NC(=O)[C@@H]([C@H](C)CC)NC(=O)[C@H](NC(=O)[C@H](NC(=O)[C@H](CCCN)NC(=O)[C@H]2CCCN2C(=O)[C@H](NC(=O)[C@@H](NC(=O)[C@H](C)NC(=O)[C@H](NC(=O)CCCC(C)C)C(C)C)C(C)C)C(C)C)[C@H](C)CC)[C@H](C)OC(=O)[C@H](C(C)C)NC1=O
CC50, nM: 1100

Below: the item to evaluate.
Field CC50 (entry C/C=C1\NC(=O)[C@H](Cc2ccccc2)NC(=O)[C@@H](C(C)C)NC(=O)[C@@H]([C@H](C)CC)NC(=O)[C@H](NC(=O)[C@H](NC(=O)[C@H](CCCN)NC(=O)[C@H]2CCCN2C(=O)[C@H](NC(=O)[C@@H](NC(=O)[C@H](Cc2ccccc2)NC(=O)[C@H](NC(=O)CCCC(C)C)C(C)C)C(C)C)C(C)C)[C@H](C)CC)[C@H](C)OC(=O)[C@H](C(C)C)NC1=O ) reads 321
